tested on: Staphylococcus aureus ATCC 29213; assay: MIC, broth microdilution, S. aureus ATCC 29213; type: cell-based; conditions: ATCC29213, Table 1, wild type strain, read-out: MIC S. aureus ATCC 29213
MIC overview
endpoint: MIC

{"molecule": "CN(C)C1CCN(c2nc3c(cc2F)c2ocnc2c(=O)n3C2CC2)C1 (stereo not shown) [Compound 83]", "measuredValue": "10 to 100 µg/mL"}
{"molecule": "Cc1c(-c2cnc(N(C)C)nc2)ccc2c3ocnc3c(=O)n(C3CC3)c12 [Compound 41]", "measuredValue": "1 to 10 µg/mL"}
{"molecule": "Nc1cc(F)c(-c2cc3c(cc2F)c2ocnc2c(=O)n3C2CC2)cc1F [Compound 69]", "measuredValue": "< 1 µg/mL"}
{"molecule": "CC(=O)OCc1nc2c(=O)n(C3CC3)c3c(C)c(-c4cc(F)c(N)cc4F)ccc3c2o1 [Compound 98]", "measuredValue": "< 1 µg/mL"}

====

tested on: Staphylococcus aureus ATCC 29213; assay: MIC, broth microdilution, S. aureus ATCC 29213; format: cell-based; details: ATCC29213, Table 1, wild type strain, read-out: MIC S. aureus ATCC 29213
endpoint: MIC

{"smilesString": "Cc1c(-c2ccc(C(=O)NCC(=O)O)cc2)ccc2c3ocnc3c(=O)n(C3CC3)c12", "assayTarget": "Staphylococcus aureus ATCC 29213", "measuredValue": "> 100 µg/mL"}
{"smilesString": "Cc1nc2c(=O)n(C3CC3)c3cc(-c4cc(F)c(C(N)=O)cc4F)c(F)cc3c2o1", "assayTarget": "Staphylococcus aureus ATCC 29213", "measuredValue": "> 100 µg/mL"}
{"smilesString": "Cc1nc2c(=O)n(C3CC3)c3c(C)c(-c4ccc(C(=O)O)cc4)ccc3c2o1", "assayTarget": "Staphylococcus aureus ATCC 29213", "measuredValue": "10 to 100 µg/mL"}
{"smilesString": "Nc1ccc(-c2cc3c(cc2F)c2ocnc2c(=O)n3C2CC2)cn1", "assayTarget": "Staphylococcus aureus ATCC 29213", "measuredValue": "10 to 100 µg/mL"}
{"smilesString": "Cc1nc2c(=O)n(C3CC3)c3c(C)c(-c4ccc(N)c(F)c4)ccc3c2o1", "assayTarget": "Staphylococcus aureus ATCC 29213", "measuredValue": "< 1 µg/mL"}
{"smilesString": "CCn1c(=O)c2ncoc2c2ccc(-c3cc(F)c(N)cc3F)c(C)c21", "assayTarget": "Staphylococcus aureus ATCC 29213", "measuredValue": "1 to 10 µg/mL"}
{"smilesString": "CCn1c(=O)c2ncoc2c2cc(F)c(-c3ccc(N)nc3)c(C)c21", "assayTarget": "Staphylococcus aureus ATCC 29213", "measuredValue": "10 to 100 µg/mL"}
{"smilesString": "Cc1c(-c2cc(F)c(N)cc2F)ccc2c3oc(CN)nc3c(=O)n(C3CC3)c12", "assayTarget": "Staphylococcus aureus ATCC 29213", "measuredValue": "< 1 µg/mL"}

====

MIC overview
tested on: S. epidermidis NRS101 MRSE; test: MIC, S. epidermidis NRS101; type: cell-based; conditions: Staphylococcus epidermidis; Table 2; read-out: MIC S. epidermidis NRS101 MRSE AMG, ERY resistant

{"compound": "Cc1onc(-c2ccccc2)c1C(=O)N[C@@H]1C(=O)N2[C@@H]1SC(C)(C)[C@@H]2C(=O)O [Oxacillin, reference compound]", "MIC": "1 to 10 µg/mL"}
{"compound": "Nc1cc(F)c(-c2cc3c(cc2F)c2ocnc2c(=O)n3C2CC2)cc1F", "MIC": "1 to 10 µg/mL"}
{"compound": "Cc1c(-c2cc(F)c(N)cc2F)ccc2c3scnc3c(=O)n(C3CC3)c12", "MIC": "< 1 µg/mL"}
{"compound": "C[C@H]1COc2c(-c3ccc(N)nc3)ccc3c4ocnc4c(=O)n1c23", "MIC": "1 to 10 µg/mL"}
{"compound": "Cc1c(-c2cnc3[nH]nc(N)c3c2)ccc2c3ocnc3c(=O)n(C3CC3)c12", "MIC": "< 1 µg/mL"}
{"compound": "CN[C@H](CC(C)C)C(=O)N[C@H]1C(=O)N[C@@H](CC(N)=O)C(=O)N[C@H]2C(=O)N[C@H]3C(=O)N[C@H](C(=O)N[C@H](C(=O)O)c4cc(O)cc(O)c4-c4cc3ccc4O)[C@H](O)c3ccc(c(Cl)c3)Oc3cc2cc(c3O[C@@H]2O[C@H](CO)[C@@H](O)[C@H](O)[C@H]2O[C@H]2C[C@](C)(N)[C@H](O)[C@H](C)O2)Oc2ccc(cc2Cl)[C@H]1O [Vancomycin, reference compound]", "MIC": "1 to 10 µg/mL"}
{"compound": "Cc1c(-c2cnc3[nH]ncc3c2)ccc2c3ocnc3c(=O)n(C3CC3)c12", "MIC": "< 1 µg/mL"}
{"compound": "Cc1nc2c(=O)n(C3CC3)c3c(C)c(-c4ccc5cn[nH]c5c4)ccc3c2o1", "MIC": "< 1 µg/mL"}
{"compound": "Cc1nc2c(=O)n(C3CC3)c3c(C)c(-c4ccc(CN)c(F)c4)ccc3c2o1", "MIC": "10 to 100 µg/mL"}
{"compound": "C[C@H]1COc2c(N3CCN(C)CC3)c(F)cc3c(=O)c(C(=O)O)cn1c23 [Levofloxacin, reference compound]", "MIC": "< 1 µg/mL"}
{"compound": "Cc1c(-c2ccc3[nH]ncc3c2)ccc2c3scnc3c(=O)n(C3CC3)c12", "MIC": "1 to 10 µg/mL"}
{"compound": "Cc1c(-c2cc(F)c(N)cc2F)ccc2c3ocnc3c(=O)n(C3CC3)c12", "MIC": "< 1 µg/mL"}
{"compound": "Cc1c(-c2cc(F)c(N)cc2F)ccc2c3oc(CN)nc3c(=O)n(C3CC3)c12", "MIC": "< 1 µg/mL"}
{"compound": "Cc1c(-c2ccc3[nH]ncc3c2)ccc2c3ocnc3c(=O)n(C3CC3)c12", "MIC": "< 1 µg/mL"}
{"compound": "Cc1nc2c(=O)n(C3CC3)c3c(C)c(-c4ccc(C(N)=O)cc4)ccc3c2o1", "MIC": "< 1 µg/mL"}
{"compound": "Cc1nc2c(=O)n(C3CC3)c3c(C)c(-c4ccc(N)nc4)ccc3c2o1", "MIC": "1 to 10 µg/mL"}
{"compound": "Cc1c(-c2cc(F)c(CO)cc2F)ccc2c3ocnc3c(=O)n(C3CC3)c12", "MIC": "< 1 µg/mL"}
